Test system: A498 renal
EXPERIMENT SUMMARY: NCI tumour cell line growth inhibition, 48 h
READOUT: TGI (µM)

INSERT INTO assay_data (compound, readout, result_modifier, reported_value) VALUES
  ('CCOC(=O)c1c(N)sc2c1C(C)(C(=O)OCC)CC2 (stereo not given)', 'TGI', '=', 83),
  ('COC(=O)c1ccccc1OCc1cc(=O)oc2ccc(C)cc12', 'TGI', '>', 100),
  ('O=c1ccn(C2CC(O)C(CO)O2)c(=O)[nH]1 (stereo not given)', 'TGI', '>', 5000),
  ('COC(=O)CC1NC(=O)[C@@H]1C(C)O (stereo not given in full)', 'TGI', '>', 100),
  ('O=C(Nc1ccncc1)C(=O)c1cn(Cc2ccc(Cl)cc2)c2ccccc12', 'TGI', '>', 100),
  ('CCCCCCCCCCCCCCCCOCC(CC(F)(F)P(=O)(OCC)OCC)OC(C)=O (stereo not given)', 'TGI', '=', 25.8),
  ('CC1OC(n2c3ccccc3c3c4c(c5c6ccccc6[nH]c5c32)C(=O)N(CCN[C@@H]2CCC[C@H]2N)C4=O)CC(O)C1O (stereo not given in full)', 'TGI', '=', 8.24),
  ('COC1=CC(c2ccc[nH]2)=N/C1=C\c1[nH]c(C)c(C(=O)CCCCC(=O)NC(C)(C)C)c1C', 'TGI', '=', 10.8),
  ('COc1cccc(C2=C(c3c(C)n(C)c4ccccc34)C(=O)NC2=O)c1', 'TGI', '>', 25),
  ('Cn1c2ccc3cc2c(=S)c2cc(ccc21)OCCOCCOCCOCCOCCO3', 'TGI', '>', 10);
